Target: Gal4 DNA binding domain fused to the LBD of LXRβ in HEK293 cells (Homo sapiens (Human), UniProt P55055)
Sequence (P55055 222-460 limits assumed): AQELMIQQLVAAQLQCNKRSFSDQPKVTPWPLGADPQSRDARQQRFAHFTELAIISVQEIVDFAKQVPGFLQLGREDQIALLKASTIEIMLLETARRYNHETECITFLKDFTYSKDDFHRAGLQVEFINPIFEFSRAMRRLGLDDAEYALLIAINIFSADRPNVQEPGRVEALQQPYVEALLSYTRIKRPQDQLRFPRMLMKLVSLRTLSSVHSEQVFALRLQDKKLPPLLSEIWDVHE
Assay: cell-based
pEC50: −log10 of the molar value.
measurement-kind: pEC50

COCCN(C)C(=O)c1cnc(N2CCN(c3ccc(F)c(S(C)(=O)=O)c3)C[C@H]2C(C)C)nc1C(F)(F)F: < 4.70
CC(C)[C@@H]1CN(c2ccc(F)c(S(C)(=O)=O)c2)CCN1c1ncc(C(=O)N(C)CCO)c(C(F)(F)F)n1: < 4.70
COCCCN(C)C(=O)c1cnc(N2CCN(c3ccc(F)c(S(C)(=O)=O)c3)C[C@H]2C(C)C)nc1C(F)(F)F: < 4.70
